# Tested on: MDA-MB-435 melanoma
# measurement protocol: NCI-60 one-dose screen, 48 h (100 = growth as untreated, 0 = no growth, -100 = all killed)
# measurement context: 10 µM unless noted
Compounds without any hit were thinned out: in the full panel of roughly 83,000, 20% have a hit. Calls of active or inactive are those of the source. Rule for the calls: active = growth percent below 10; inactive = the rest.
Hi there, I'd appreciate the recorded growth for every entry that follows.

Prompt: Provide one value: measured growth of COCn1c(C(=O)OC)cc2oc(/C=C3/SC(=S)N(N)C3=O)cc21
Completion: 94.9% (inactive)

Prompt: Provide one value: measured growth of CC/C(=N\Nc1nc2ccccc2n1C)c1ccccn1
Completion: 18.9% (inactive)

Prompt: Provide one value: measured growth of Oc1ccc(Br)cc1/C=N/NC(=S)NC12CC3CC(CC(C3)C1)C2
Completion: 18.6% (inactive)

Prompt: Provide one value: measured growth of Cc1nnc(/N=C2\NC(=O)/C(=C/C=C/c3ccccc3)S2)s1
Completion: 16.3% (inactive)

Prompt: Provide one value: measured growth of Cc1ccc(NCc2cn(-c3ccc(C(=O)O)cc3)nc2-c2ccc(C(=O)O)cc2)cc1
Completion: 107% (inactive)

Prompt: Provide one value: measured growth of CCOC(=O)CCCCCCCCC(=O)OCC
Completion: 112% (inactive)

Prompt: Provide one value: measured growth of O=C(/C=C\c1ccccc1Cl)c1ccccc1
Completion: 90.5% (inactive)

Prompt: Provide one value: measured growth of O=C1c2ccccc2CCc2ccccc21
Completion: 100% (inactive)

Prompt: Provide one value: measured growth of COC1=C(OC)C(=O)c2ccccc2C1=O
Completion: 111% (inactive)

Prompt: Provide one value: measured growth of CSc1nc(N)n2nccc2n1
Completion: 98.3% (inactive)

Prompt: Provide one value: measured growth of N=C(N)c1ccc(-c2ccc(-c3ccc(F)cc3)s2)cc1
Completion: -99.2% (active)

Prompt: Provide one value: measured growth of COc1ccc(-c2nc(Nc3nc4ccccc4[nH]3)nc(N)c2C#N)cc1
Completion: 117% (inactive)
